target: SARM1 (ARM-SAM-TIR, full length SARM1) (Homo sapiens); test: biochemical; settings: SARM1 IC50 (nM), ARM-SAM-TIR lysate 5 μg/mL from NRK1-HEK293T cells, 2 h pre-incubation, 5 uM NAD+, 2 hr room temperature
Experimental Endpoint: IC50

IC50 reported for this compound O=C1C(Cc2ccc(Cl)nc2)CCN1c1nnc(-c2ccncc2)[nH]1 (stereo not shown) [Compound I-9] : 101 to 500 nM

IC50 reported for this compound O=C1C(Cc2ccc(F)nc2)CCN1c1[nH]nc(-c2ccncc2)c1F (single isomer, unassigned) [I-33* (peak 2)] : < 50 nM

IC50 reported for this compound O=C1C(Cc2ccc(Cl)nc2)CCN1c1nnc(-c2ccncc2)[nH]1 (single isomer, unassigned) [I-9* (peak 2)] : 51 to 100 nM

IC50 reported for this compound Cc1c(-c2ccncc2)n[nH]c1N1CCC(Cc2ccc(F)c(F)c2)C1=O (stereo not shown) [Compound I-49] : 51 to 100 nM

IC50 reported for this compound O=C1N(c2nc(-c3ccncc3)n[nH]2)CCC1(F)Cc1ccc(Cl)nc1 (single isomer, unassigned) [I-42* (peak 1)] : > 1000 nM

IC50 reported for this compound O=C1C(Cc2ccc(F)cc2)CCN1c1nnc(-c2ccncc2)[nH]1 (single isomer, unassigned) [I-7* (peak 2)] : < 50 nM

IC50 reported for this compound O=C1C(Cc2ccc(Cl)cc2)CCCN1c1cc(-c2ccncc2)n[nH]1 (stereo not shown) [Compound I-19] : < 50 nM

IC50 reported for this compound CC1(Cc2ccc(Cl)cc2)CCCN(c2nc(-c3ccncc3)n[nH]2)C1=O (stereo not shown) [Compound I-54] : 101 to 500 nM

IC50 reported for this compound O=C1C(Cc2ccc(F)nc2)CCN1c1[nH]nc(-c2ccncc2)c1Cl (stereo not shown) [Compound I-32] : < 50 nM

IC50 reported for this compound O=C1C(Cc2ccc(Cl)cc2)OCCN1c1cc(-c2ccncc2)n[nH]1 (single isomer, unassigned) [I-47* (peak 1)] : 51 to 100 nM

IC50 reported for this compound N#Cc1ccc(CC2CCCN(c3nc(-c4ccncc4)n[nH]3)C2=O)cc1 (stereo not shown) : 101 to 500 nM

IC50 reported for this compound O=C1C(Cc2ccc(Cl)cc2)CCCN1c1nnc(-c2ccncc2)[nH]1 (stereo not shown) [Compound I-5] : < 50 nM

IC50 reported for this compound N#Cc1cc(CC2CCCN(c3nc(-c4ccncc4)n[nH]3)C2=O)ccc1Cl (stereo not shown) : 101 to 500 nM

* * *

target: SARM1 (ARM-SAM-TIR, full length SARM1) (Homo sapiens, UniProt Q6SZW1); settings: read-out: SARM1 IC50; ARM-SAM-TIR lysate 5 μg/mL from NRK1-HEK293T cells, 2 h pre-incubation, 5 uM NAD+, 2 hr room temperature
Sequence (Q6SZW1 with tags, fused parts or gaps): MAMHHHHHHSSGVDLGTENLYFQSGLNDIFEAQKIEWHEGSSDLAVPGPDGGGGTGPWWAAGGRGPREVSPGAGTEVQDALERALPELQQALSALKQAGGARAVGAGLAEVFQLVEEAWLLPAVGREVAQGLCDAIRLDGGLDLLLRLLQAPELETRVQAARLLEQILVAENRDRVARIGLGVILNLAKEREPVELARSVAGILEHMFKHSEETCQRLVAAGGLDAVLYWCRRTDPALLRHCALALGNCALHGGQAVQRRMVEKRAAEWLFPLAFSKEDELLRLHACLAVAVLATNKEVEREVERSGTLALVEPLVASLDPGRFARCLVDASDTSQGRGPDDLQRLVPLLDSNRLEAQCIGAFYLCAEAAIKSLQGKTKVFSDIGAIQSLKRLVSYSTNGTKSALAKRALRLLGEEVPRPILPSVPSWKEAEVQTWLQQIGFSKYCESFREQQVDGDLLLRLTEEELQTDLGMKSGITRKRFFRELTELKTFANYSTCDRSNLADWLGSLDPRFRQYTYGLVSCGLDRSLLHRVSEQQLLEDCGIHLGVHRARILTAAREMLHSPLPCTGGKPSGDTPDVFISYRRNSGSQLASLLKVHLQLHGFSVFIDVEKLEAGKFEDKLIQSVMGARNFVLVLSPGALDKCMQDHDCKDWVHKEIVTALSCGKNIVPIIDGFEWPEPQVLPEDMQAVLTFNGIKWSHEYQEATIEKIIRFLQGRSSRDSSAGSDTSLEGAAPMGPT
Experimental Endpoint: IC50

Illustrative cases are given below, each with its answer.
Compound	IC50
O=C1C(Cc2ccc(F)c(F)c2)CCN1c1cc(-c2ccncc2)n[nH]1 (single isomer, unassigned) [I-16* (peak 2)]	< 50 nM
O=C1[C@H](Cc2ccc(Cl)nc2)CCCN1c1cc(-c2ccnnc2)n[nH]1 [I-77*]	< 50 nM
O=C1C(Cc2cnc(Cl)c(F)c2)CCN1c1cc(-c2ccncc2)n[nH]1 (single isomer, unassigned) [I-65* (peak 2)]	< 50 nM

Now examine the next entry.
Record Cc1c(-c2ccncc2)n[nH]c1N1CCC(Cc2ccc(Cl)nc2)C1=O (single isomer, unassigned) [I-48* (peak 2)] ; system SARM1 (ARM-SAM-TIR, full length SARM1) (Homo sapiens, UniProt Q6SZW1); IC50 = 101 to 500 nM

* * *

target: SARM1 (ARM-SAM-TIR, full length SARM1) (Homo sapiens, UniProt Q6SZW1); conditions: read-out: SARM1 IC50; ARM-SAM-TIR lysate 5 μg/mL from NRK1-HEK293T cells, 2 h pre-incubation, 5 uM NAD+, 2 hr room temperature
Experimental Endpoint: IC50

Compound	IC50
Cc1c(-c2ccncc2)n[nH]c1N1CCC(Cc2cnc(Cl)c(F)c2)C1=O (single isomer, unassigned) [I-41* (peak 2)]	101 to 500 nM

IC50 reported for this compound `O=C1[C@H](Cc2ccc(F)nc2)CCCN1c1cc(-c2ccnnc2)n[nH]1` : < 50 nM

IC50 reported for this compound `O=C1[C@H](Cc2ccc(Cl)c(F)c2)CCCN1c1cc(-c2ccnnc2)n[nH]1` : < 50 nM

IC50 reported for this compound O=C1N(c2nc(-c3ccncc3)n[nH]2)CCC1(F)Cc1ccc(Cl)nc1 (single isomer, unassigned) [I-42* (peak 2)] : > 1000 nM

IC50 reported for this compound O=C1C(Cc2ccc(Cl)cc2)CCCN1c1nnc(-c2ccncc2)[nH]1 (single isomer, unassigned) [I-5* (peak 2)] : < 50 nM

IC50 reported for this compound N#Cc1ccc(CC2CCN(c3cc(-c4ccncc4)n[nH]3)C2=O)cc1F (single isomer, unassigned) [I-37* (peak 2)] : 51 to 100 nM

IC50 reported for this compound O=C1C(Cc2ccc(Cl)cc2)CCCN1c1cc(-c2ccncc2)n[nH]1 (single isomer, unassigned) [I-19* (peak 2)] : < 50 nM

IC50 reported for this compound `O=C1[C@H](Cc2ccc(F)cc2)CCCN1c1cc(-c2ccnnc2)n[nH]1` : < 50 nM

* * *

target: SARM1 (ARM-SAM-TIR, full length SARM1) (Homo sapiens); test: biochemical; conditions: SARM1 IC50 (nM), ARM-SAM-TIR lysate 5 μg/mL from NRK1-HEK293T cells, 2 h pre-incubation, 5 uM NAD+, 2 hr room temperature
Form field: IC50 (one value per entry).

Illustrative cases are given below, each with its answer.
Compound	Assayed System	Recorded Result
O=C1C(Cc2ccc(Cl)cc2)CCN1c1nnc(-c2ccncc2)[nH]1 (centres unmarked) [Compound I-4]	SARM1 (ARM-SAM-TIR, full length SARM1) (Homo sapiens)	< 50 nM
O=C1C(Cc2ccc(F)nc2)CCN1c1nnc(-c2ccncc2)[nH]1 (single isomer, unassigned) [I-39* (peak 1)]	SARM1 (ARM-SAM-TIR, full length SARM1) (Homo sapiens)	101 to 500 nM
O=C1C(Cc2ccc(Cl)nc2)CCCCN1c1cc(-c2ccncc2)n[nH]1 (single isomer, unassigned) [I-40* (peak 2)]	SARM1 (ARM-SAM-TIR, full length SARM1) (Homo sapiens)	101 to 500 nM
Cc1c(-c2ccncc2)n[nH]c1N1CCN[C@@H](Cc2ccc(Cl)cc2)C1=O [Compound I-3-a]	SARM1 (ARM-SAM-TIR, full length SARM1) (Homo sapiens)	> 1000 nM
CC1(Cc2ccc(F)c(F)c2)CCN(c2nc(-c3ccncc3)n[nH]2)C1=O (centres unmarked) [Compound I-43]	SARM1 (ARM-SAM-TIR, full length SARM1) (Homo sapiens)	> 1000 nM

IC50 reported for this compound N#Cc1c(-c2ccncc2)n[nH]c1N1CCC(Cc2ccc(Cl)cc2)C1=O (centres unmarked) [Compound I-52] : < 50 nM

IC50 reported for this compound Cc1c(-c2ccncc2)n[nH]c1N1CCC(Cc2ccc(Cl)nc2)C1=O (centres unmarked) [Compound I-48] : 101 to 500 nM

IC50 reported for this compound O=C1C(Cc2ccc(Cl)nc2)CCN1c1[nH]nc(-c2ccncc2)c1F (centres unmarked) [Compound I-36] : < 50 nM

* * *

biological target: SARM1 (ARM-SAM-TIR, full length SARM1) (Homo sapiens); assay: biochemical; conditions: SARM1 IC50 (nM), ARM-SAM-TIR lysate 5 μg/mL from NRK1-HEK293T cells, 2 h pre-incubation, 5 uM NAD+, 2 hr room temperature
Experimental Endpoint: IC50

Illustrative cases are given below, each with its answer.
Molecule	IC50
O=C1C(Cc2ccc(Cl)cc2)OCCN1c1nnc(-c2ccncc2)[nH]1 (stereo not shown) [Compound I-44]	< 50 nM
O=C1C(Cc2ccc(Cl)cc2)NCN1c1cc(-c2ccncc2)n[nH]1 (stereo not shown) [Compound I-59]	101 to 500 nM
O=C1C(Cc2ccc(Cl)nc2)CNCN1c1cc(-c2ccncc2)n[nH]1 (stereo not shown) [Compound I-64]	> 1000 nM
O=C1C(Cc2ccc(F)c(F)c2)CCN1c1nnc(-c2ccncc2)[nH]1 (stereo not shown) [Compound I-11]	< 50 nM
O=C1C(Cc2ccc(Cl)cc2)CNCCN1c1nc(-c2ccncc2)n[nH]1 (single isomer, unassigned) [I-38* (peak 2)]	> 1000 nM

IC50 reported for this molecule O=C1C(Cc2ccc(Cl)nc2)CCN1c1cc(-c2ccncc2)n[nH]1 (stereo not shown) [Compound I-17] : < 50 nM

IC50 reported for this molecule [2H]C([2H])(c1ccc(Cl)nc1)C1([2H])C(=O)N(c2cc(-c3ccncc3)n[nH]2)C([2H])([2H])C([2H])([2H])C1([2H])[2H] (single isomer, unassigned) [I-79* (peak 2)] : 101 to 500 nM

Where do these numbers come from? They come from patent US12043613B2.
